Consider the following binders and their measured koff readings.
Target: T1, cynomolgus CD3 epsilon (cynomolgus monkey, UniProt Q95LI5 22-117, limits assumed)
T1 construct: Recombinant protein; also called cyno CD3E
T1 sequence: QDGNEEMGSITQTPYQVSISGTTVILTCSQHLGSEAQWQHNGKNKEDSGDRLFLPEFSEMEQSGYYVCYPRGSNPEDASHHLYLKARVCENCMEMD
Experiment: SPR (Biacore), antibody captured, cynomolgus CD3 epsilon analyte
State the answer as a number, implicitly in s⁻¹.

These solved cases illustrate the format of a correct answer.
2037-B10_Hc-F104D (antibody, human IgG1, lambda, V domains shown, human IgG1, lambda; also called SRP 2037 F104D; 2037-B10_VH-F104D) VH: EVQLVESGGGLVKPGGSLRLSCAASGFTFNKYAMNWVRQAPGKGLEWVARIRTKYNNYATYYADSVKDRFTISRDDSKNTAYLQMNSLKTEDTAVYYCVRHGNDGNSYISYWAYWGQGTPVTVSS VL: QTVVTQEPSLTVSPGGTVTLTCGSSTGAVTSGYYPNWLQQKPGQAPRGLIGGTKFLAPGTPARFSGSLLGGKAALTLSGVQPEDEAEYYCALWYSNRWVFGGGTQLTVTG
0.00107
2037-B10_Hc-Y61D (antibody, human IgG1, lambda, V domains shown, human IgG1, lambda; also called SRP 2037 Y61D; 2037-B10_VH-Y61D) VH: EVQLVESGGGLVKPGGSLRLSCAASGFTFNKYAMNWVRQAPGKGLEWVARIRTKYNNYATDYADSVKDRFTISRDDSKNTAYLQMNSLKTEDTAVYYCVRHGNFGNSYISYWAYWGQGTPVTVSS VL: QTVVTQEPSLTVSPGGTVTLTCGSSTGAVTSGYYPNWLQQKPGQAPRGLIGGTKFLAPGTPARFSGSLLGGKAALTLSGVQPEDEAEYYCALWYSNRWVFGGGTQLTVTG
0.00123
SRP 2037-B10 Y55D/LC6 (antibody, human IgG1, kappa, V domains shown, human IgG1, kappa) VH: EVQLVESGGGLVKPGGSLRLSCAASGFTFNKYAMNWVRQAPGKGLEWVARIRTKDNNYATYYADSVKDRFTISRDDSKNTAYLQMNSLKTEDTAVYYCVRHGNFGNSYISYWAYWGQGTPVTVSS VL: DIQMTQSPSSLSASVGDRVTITCGSSTGAVTSGYYPNWLQQKPGQAPRGLIGGTKFLAPGVPSRFSGSLSGGKATLTISSLQPEDFATYYCALWYSNRWVFGGGTKVEIKR
0.000945
2037-B10_Hc-F29D (antibody, human IgG1, lambda, V domains shown, human IgG1, lambda; also called SRP 2037 F29D; 2037-B10_VH-F29D) VH: EVQLVESGGGLVKPGGSLRLSCAASGFTDNKYAMNWVRQAPGKGLEWVARIRTKYNNYATYYADSVKDRFTISRDDSKNTAYLQMNSLKTEDTAVYYCVRHGNFGNSYISYWAYWGQGTPVTVSS VL: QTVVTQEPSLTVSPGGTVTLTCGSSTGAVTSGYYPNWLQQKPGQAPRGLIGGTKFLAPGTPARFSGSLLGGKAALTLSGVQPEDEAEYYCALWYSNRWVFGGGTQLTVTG
0.000573

API: the following record is the query input.
Prompt: What koff value was documented for this binder, SRP 2037-B10 F29D/LC6 (antibody, human IgG1, kappa, V domains shown, human IgG1, kappa) VH: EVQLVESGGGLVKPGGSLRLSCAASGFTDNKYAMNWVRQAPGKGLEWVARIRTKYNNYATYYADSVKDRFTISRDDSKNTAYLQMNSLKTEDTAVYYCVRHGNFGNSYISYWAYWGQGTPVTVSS VL: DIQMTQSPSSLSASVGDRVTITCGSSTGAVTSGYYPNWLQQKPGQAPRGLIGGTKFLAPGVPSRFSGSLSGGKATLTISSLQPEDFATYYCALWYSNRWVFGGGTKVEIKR ?
Completion: 0.00121
